Ref: patent US20210061908A1

Target: T1, extracellular domain (ECD) of human IGSF11 (VSIG3), biotinylated (human, UniProt Q5DX21 23-241, biotinylated (site not stated))
T1 construct: also called human IGSF11 protein
T1 sequence: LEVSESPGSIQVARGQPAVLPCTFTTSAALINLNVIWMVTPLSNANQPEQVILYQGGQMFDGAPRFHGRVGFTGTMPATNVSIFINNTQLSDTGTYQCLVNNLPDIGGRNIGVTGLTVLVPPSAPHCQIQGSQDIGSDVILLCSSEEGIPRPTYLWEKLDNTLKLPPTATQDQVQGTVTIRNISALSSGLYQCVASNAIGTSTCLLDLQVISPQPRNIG
Assay: ELISA, scFv; RFU grade (*** >1.0, ** 0.5-1.0, * 0.1-0.5)
Measurement Label: relative fluorescent units (RFU), ELISA

Solved entries:
{"Binder": "A-010 (scFv format) (scFv, V domains shown, scFv) VH: QVQLVQSGAEVKKPGASVKVSCKASGYTFTSYGISWVRQAPGQGLEWMGWISAYNGNTNYAQKLQGRVTMTTDTSTSTAYMELRSLRSDDTAVYYCARVPAWSGQFDYWGQGTLVTVSS VL: QSALTQPASVSGSPGQSITISCTGSSSDVGGYNYVSWYQQYPGKAPKLMIYDVRSRPSGVSNRFSGSKSGNTASLTISGLQAEDEADYYCTSYTSSNTLVIFGGGTKVTVL", "Recorded Value": "0.5 to 1 rfu"}
{"Binder": "A-037 (scFv format) (scFv, V domains shown, scFv) VH: QVQLVQSGAEVKKPGASVKVSCKASGYTFTGYYMHWVRQAPGQGLEWMGWINPNSGNTGYAQKFQGRVTMTRNTSISTAYMELSSLRSEDTAVYYCARGGQQQLVLDDYWGQGTLVTVSS VL: NFMLTQPHSVSESPGKTVTISCTGSSGSIASNYVQWYQQRPGSAPTTVIYEDNQRPSGVPDRFSGSIDSSSNSASLTISGLKTEDEADYYCQSYDSSNQRVFGGGTKLTVL", "Recorded Value": "0.1 to 0.5 rfu"}

Now consider the entry below.
Prompt line: Specify reported relative fluorescent units (RFU), ELISA for the binder shown: A-014 (scFv format) (scFv, V domains shown, scFv) VH: QVQLVQSGAEVKKPGASVKVSCKASGYTFNDYYIHWVRQAPGQGLEWMGWFNPSTGGANYAQKFQGRVTMTRDTSISTAYLEVSSLRSDDTAVYYCARGNSPDLDYWGQGTLVTVSS VL: DIQMTQSPDSLTVSLGERATINCKSSQSLLHSSNNKNYLAWYQQRPGQPPKLLIYWASTRQSGVPDRFSGSGSGTDFTLTINSLQADDMAVYYCQQYYTTTPNTFGQGTKLEIK
Response line: 0.5 to 1 rfu
